- Target: beta-catenin/TCF4 engagement (Homo sapiens)
- Construct: expressed in transfected cells; host or cells: HEK293
- Sequence (P35222 whole entry): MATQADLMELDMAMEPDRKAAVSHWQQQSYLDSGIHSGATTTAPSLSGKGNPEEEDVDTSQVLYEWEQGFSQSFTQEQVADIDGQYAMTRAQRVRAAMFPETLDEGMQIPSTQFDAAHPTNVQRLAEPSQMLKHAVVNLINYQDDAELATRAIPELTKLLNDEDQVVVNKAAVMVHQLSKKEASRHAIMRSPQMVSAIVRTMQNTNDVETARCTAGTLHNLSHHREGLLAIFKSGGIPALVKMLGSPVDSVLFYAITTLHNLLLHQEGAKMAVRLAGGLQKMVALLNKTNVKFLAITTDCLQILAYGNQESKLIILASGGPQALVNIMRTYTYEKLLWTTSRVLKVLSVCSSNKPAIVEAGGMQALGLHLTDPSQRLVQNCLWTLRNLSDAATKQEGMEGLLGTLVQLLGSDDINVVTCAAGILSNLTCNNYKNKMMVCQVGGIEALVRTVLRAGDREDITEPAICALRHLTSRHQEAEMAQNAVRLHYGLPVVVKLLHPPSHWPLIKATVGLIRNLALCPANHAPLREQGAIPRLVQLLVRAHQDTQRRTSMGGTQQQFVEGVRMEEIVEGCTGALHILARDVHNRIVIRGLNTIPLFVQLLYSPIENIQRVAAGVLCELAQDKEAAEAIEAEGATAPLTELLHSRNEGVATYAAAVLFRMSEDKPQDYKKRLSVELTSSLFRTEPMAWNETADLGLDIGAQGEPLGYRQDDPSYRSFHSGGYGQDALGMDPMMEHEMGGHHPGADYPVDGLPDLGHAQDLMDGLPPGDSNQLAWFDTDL
- Procedure Summary: Nano-BRET target engagement assay (B-cat-Halo & TCF4-Luc in HEK293 cells)
- Type: cell-based
- Assay Conditions: absolute IC50; read-out: NanoBRET Abs IC50
Provide the reported IC50 of each item.

Recorded result, CC(=O)N1CCC[C@]12CC=CCCCC1(CCCC=CCCCOC(=O)N3CC[C@@](C(=O)N[C@@H](Cc4ccsc4)C(=O)N[C@@H](Cc4csc5ccccc45)C(=O)N[C@@H](CCC(N)=O)C(N)=O)(C3)NC(=O)[C@H](CC(C)C)NC(=O)[C@H](Cc3ccccc3)NC(=O)[C@H](C)NC(=O)[C@H](C)NC(=O)[C@H](CC(=O)O)NC(=O)[C@H](CC(=O)O)NC1=O)NC(=O)[C@H](CO)NC(=O)[C@H](CC(=O)O)NC2=O (some centres unmarked) , IC50: > 20 µM

Recorded result, CC(=O)N1CCC[C@]12CC=CCCCC1(CCCC=CCCCOC(=O)N3CC[C@@](C(=O)N[C@@H](Cc4ccccc4C(F)(F)F)C(=O)N[C@@H](Cc4csc5ccccc45)C(=O)N[C@@H](CCC(N)=O)C(=O)N[C@@H](CC(C)C)C(=O)NC(C)(C)C(N)=O)(C3)NC(=O)[C@H](CC(C)C)NC(=O)[C@H](Cc3ccccc3)NC(=O)[C@H](C)NC(=O)[C@H](C)NC(=O)[C@H](Cc3cccc(C(=O)O)c3)NC(=O)[C@H](CC(=O)O)NC1=O)NC(=O)[C@H](CC(C)(C)C)NC(=O)[C@H](CC(=O)O)NC2=O (some centres unmarked) , IC50: 2.8 µM

Recorded result, CC(=O)N1CCC[C@]12CC=CCCCC1(CCCC=CCCCCCC[C@@](C)(C(=O)N[C@@H](Cc3ccccc3Cl)C(=O)N[C@@H](Cc3csc4ccccc34)C(=O)N[C@@H](C(N)=O)[C@H](C)O)NC(=O)[C@H](CC(C)C)NC(=O)[C@H](Cc3ccccc3)NC(=O)[C@H](C)NC(=O)[C@H](C)NC(=O)[C@H](CC(=O)O)NC(=O)[C@H](CC(=O)O)NC1=O)NC(=O)[C@H](CC(C)(C)C)NC(=O)[C@H](CC(=O)O)NC2=O (some centres unmarked) , IC50: > 20 µM

Recorded result, CC(=O)N1CCC[C@]12CC=CCCCC1(CCCC=CCCCOC(=O)N3CC[C@@](C(=O)N[C@@H](Cc4ccccc4Cl)C(=O)N[C@@H](Cc4csc5ccccc45)C(=O)N[C@H](CO)[C@@H](C)O)(C3)NC(=O)[C@H]([C@@H](C)O)NC(=O)[C@H](Cc3ccccc3)NC(=O)[C@H](C)NC(=O)[C@H](C)NC(=O)[C@H]([C@@H](C)O)NC(=O)[C@H](CC(=O)O)NC1=O)NC(=O)[C@H](CC1CCCCC1)NC(=O)[C@H](CC(=O)O)NC2=O (some centres unmarked) , IC50: > 20 µM

Recorded result, CC(=O)N1CCC[C@]12CCCCCCC1(CCCCCCCOC(=O)N3CC[C@@](C(=O)N[C@@H](Cc4ccsc4)C(=O)N[C@@H](Cc4csc5ccccc45)C(=O)N[C@@H](CCC(N)=O)C(N)=O)(C3)NC(=O)[C@H](CC(N)=O)NC(=O)[C@H](Cc3ccccc3)NC(=O)[C@H](C)NC(=O)[C@H](C)NC(=O)[C@H](CC(=O)O)NC(=O)[C@H](CC(=O)O)NC1=O)NC(=O)[C@H](CC(C)(C)C)NC(=O)[C@H](CC(=O)O)NC2=O (some centres unmarked) , IC50: > 20 µM
